Target: T1, recombinant human VEGF165 (PeproTech EC Ltd.) (human, UniProt P15692-4 27-191)
T1 construct: Amine-coupled to a CM4 sensor chip; also called hVEGF165
T1 sequence (P15692 other isoform, or with tags, fused parts or gaps limits assumed): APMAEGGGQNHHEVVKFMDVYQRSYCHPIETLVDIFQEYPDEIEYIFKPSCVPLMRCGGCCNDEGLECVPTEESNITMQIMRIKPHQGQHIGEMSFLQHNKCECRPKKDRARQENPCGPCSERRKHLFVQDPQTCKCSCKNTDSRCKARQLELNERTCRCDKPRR
Experiment: SPR BIAcore T100, hVEGF165 amine-coupled on CM4 chip, scFv as analyte

{"binder": "435-max (scFv) EIVMTQSPSTLSASVGDRVIITCQASQSIGSSLAWYQQKPGKAPKLLIYTAANLASGVPSRFSGSRSGAEFTLTISSLQPDDFATYYCQNFATSDTVTFGQGTKLTVLGGGGGSGGGGSGGGGSGGGGSEVQLVESGGGLVQPGGSLRLSCKASGFSLNTNYWMCWVRQAPGKGLEWVGCMYTGSYNRAYYASWAKGRFTSSKDTSKNTVYLQMNSLRAEDTAVYYCAKGSNWYSDLWGQGTLVTVSS", "koff": "0.000755 s⁻¹"}
{"binder": "375-max (scFv) EIVMTQSPSTLSASVGDRVIITCQASENINIWLSWYQQKPGKAPKLLIYQASKLASGVPSRFSGSGSGTQFTLTISSLQPDDFATYYCQNNYSYNRYGAPFGQGTKLTVLGGGGGSGGGGSGGGGSGGGGSEVQLVESGGGLVQPGGSLRLSCKASGFSFTTTDYMCWVRQAPGKGLEWVGCILAGDGSTYYANWAKGRFTGSKDTSKNTVYLQMNSLRAEDTAVYYCARSDPASSWSFALWGQGTLVTVSS", "koff": "0.00655 s⁻¹"}
{"binder": "509-min (scFv) EIVMTQSPSTLSASVGDRVIITCQASQNIRIWLSWYQQKPGKAPKLLIYKASTLESGVPSRFSGSGSGAEFTLTISSLQPDDFATYYCQNNAHYSTNGGTFGQGTKLTVLGGGGGSGGGGSGGGGSGGGGSEVQLVESGGGLVQPGGSLRLSCAASGFSLSSYYMCWVRQAPGKGLEWVSCLDYVGDTDYASWAKGRFTISRDNSKNTLYLQMNSLRAEDTAVYYCAKTDDSRGWGLNIWGQGTLVTVSS", "koff": "0.00114 s⁻¹"}
{"binder": "578-min (scFv) EIVMTQSPSTLSASVGDRVIITCQASEIIHSWLAWYQQKPGKAPKLLIYLASTLASGVPSRFSGSGSGAEFTLTISSLQPDDFATYYCQNVYLASTNGANFGQGTKLTVLGGGGGSGGGGSGGGGSGGGGSEVQLVESGGGLVQPGGSLRLSCAASGFSLTDYYYMTWVRQAPGKGLEWVSFIDPDDDPYYATWAKGRFTISRDNSKNTLYLQMNSLRAEDTAVYYCAKGDHNSGWGLDIWGQGTLVTVSS", "koff": "0.0103 s⁻¹"}
{"binder": "567-min (scFv) EIVMTQSPSTLSASVGDRVIITCQADQSIYIWLSWYQQKPGKAPKLLIYKASTLESGVPSRFSGSGSGAEFTLTISSLQPDDFATYYCQNNAHYSTNGGTFGQGTKLTVLGGGGGSGGGGSGGGGSGGGGSEVQLVESGGGLVQPGGSLRLSCAASGFSLSDYYMCWVRQAPGKGLEWVSCLDYFGSTDDASWAKGRFTISRDNSKNTLYLQMNSLRAEDTAVYYCAKTDDSRGWGLNIWGQGTLVTVSS", "koff": "0.000461 s⁻¹"}
